As shown below, each of these binders has a reported hGIPR cAMP Rel EC50 value.
tested.system: T1, human gastric inhibitory peptide receptor (GIPR) (human, UniProt P48546 22-466)
T1 sequence (looked up): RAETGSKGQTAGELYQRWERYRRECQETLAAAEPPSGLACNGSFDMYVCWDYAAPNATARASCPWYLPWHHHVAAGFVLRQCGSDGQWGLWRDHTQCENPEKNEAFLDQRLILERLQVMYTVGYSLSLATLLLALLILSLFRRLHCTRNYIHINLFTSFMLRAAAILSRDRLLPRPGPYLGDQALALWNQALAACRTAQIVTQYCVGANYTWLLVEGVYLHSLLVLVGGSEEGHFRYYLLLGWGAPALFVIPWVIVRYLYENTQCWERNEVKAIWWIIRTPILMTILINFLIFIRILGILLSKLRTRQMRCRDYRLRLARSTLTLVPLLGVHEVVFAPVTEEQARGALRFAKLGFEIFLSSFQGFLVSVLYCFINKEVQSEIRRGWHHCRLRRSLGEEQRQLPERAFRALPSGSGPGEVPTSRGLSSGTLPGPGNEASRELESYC
assay.procedure: cell-based or functional assay
Numbered stars: 1 amine (or outer) side, 2 acyl side, 3 side chain; on linkers, the order of the positions; unused ones are H or OH. Square brackets hold non-standard residues; d marks the D form. Side chains are listed from the residue outwards. Ends that are not written are not given here. * marks the point of attachment. C20 diacid = O=C(O)CCCCCCCCCCCCCCCCCCC(=O)*; αMePhe(2-F) = C[C@](N)(Cc1ccccc1F)C(=O)O; γGlu = O=C(O)[C@H](CCC(=O)[*:2])N[*:1]; Desaminohistidyl = O=C(CCc1c[nH]cn1)*; αMeF = C[C@](N)(Cc1ccccc1)C(=O)O; αMeP = C[C@@]1(C(=O)O)CCCN1; AEEA = NCCOCCOCC(=O)O; Aib = CC(C)(N)C(=O)O
readout.name: hGIPR cAMP Rel EC50 (nM)

INSERT INTO results (binder, readout_name, quantity_unit, reported_relation, measured_value) VALUES
  ('[Desaminohistidyl][αMeP]EGTFTSDYSILLDEK([AEEA-AEEA-γGlu-C20 diacid])AQQAFIEYLIEGGPSSGAPPPS-NH2 [Example 201]', 'hGIPR cAMP Rel EC50', 'nM', '>', 30),
  ('Y[Aib]EGT[αMeF]TSDYSIXLDEK([AEEA-AEEA-γGlu-C20 diacid])AQ[Aib]EFIEYLIEGGPSSG-NH2 (not fully specified (residue 13); printed as Y-Aib-EGT-αMeF-TSDYSI-αMeF-LDEK((2-[2-(2-Amino-ethoxy)-ethoxy]-acetyl)2-(γ-Glu)-CO-(CH2)18-CO2H)AQ-Aib-EFIEYLIEGGPSSG-NH2) [Example 124]', 'hGIPR cAMP Rel EC50', 'nM', '=', 0.0762),
  ('YXEGTXTSDHSIXLDEKAQXTFIXYLIEGGPSSGAPPPS (Y-Aib-EGT-αMeF(2F)-TSDHSI-αMeF-LDEK((2-[2-(2-Amino-ethoxy)-ethoxy]-acetyl)2-(ϵK)-CO-(CH2)16-CO2H)AQ-Aib-TFI-(D-Glu)-YLIEGGPSSGAPPPS-NH2) [Example 176]', 'hGIPR cAMP Rel EC50', 'nM', '=', 0.523),
  ('Y[Aib]EGT[αMeF]TSDYSIXLDKKAQ[Aib]DFIEYLIEGGPSSGAPPPS-NH2 (not fully specified (residues 13, 17); printed as Y-Aib-EGT-αMeF-TSDYSI-αMeF-LDKK((2-[2-(2-Amino-ethoxy)-ethoxy]-acetyl)2-(γ-Glu)-CO-(CH2)18-CO2H)AQ-Aib-DFIEYLIEGGPSSGAPPPS-NH2) [Example 140]', 'hGIPR cAMP Rel EC50', 'nM', '=', 0.0349),
  ('Y[Aib]EGT[αMeF]TSDYSIXLDKK([AEEA-AEEA-γGlu-C20 diacid])AQ[Aib]TFIEYLIEGGPSSGAPPPS-NH2 (not fully specified (residue 13); printed as Y-Aib-EGT-αMeF-TSDYSI-αMeF-LDKK((2-[2-(2-Amino-ethoxy)-ethoxy]-acetyl)2-(γ-Glu)-CO-(CH2)18-CO2H)AQ-Aib-TFIEYLIEGGPSSGAPPPS-NH2) [Example 139]', 'hGIPR cAMP Rel EC50', 'nM', '=', 0.037),
  ('Y[Aib]EGT[αMePhe(2-F)]TSD[αMeF]SIXLDEKAQ[Aib]EFIEYLIEGGPSSGAPPPS-NH2 (not fully specified (residues 13, 17); printed as Y-Aib-EGT-αMeF(2F)-TSD-αMeF-SI-αMeF-LDEK((2-[2-(2-Amino-ethoxy)-ethoxy]-acetyl)2-(γ-Glu)-CO-(CH2)18-CO2H)AQ-Aib-EFIEYLIEGGPSSGAPPPS-NH2) [Example 159]', 'hGIPR cAMP Rel EC50', 'nM', '=', 4.6);
